- Test system: LOC_OS01G51400-cb002;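 also: purified Escherichia coli-expressed rice kinase domain construct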
- TEST METHOD NOTES: thermal shift delta Tm vs DMSO control; higher = stronger stabilization (binding)
- CONDITIONS USED: 12.5 µM; protein concentration 2 µM
This listing pairs compounds with measured thermal shift delta Tm.

| COMPOUND | thermal shift delta Tm |
| --- | --- |
| O=C(O)c1ccc2c(c1)nc(Nc1cccc(Cl)c1)c1ccncc12 [Silmitasertib (CX-4945)] | 0.3 °C |
| FC(F)(F)c1ccc(/C=C/c2nc(COc3ccc(CCCCn4ccnn4)cc3)co2)cc1 [Mubritinib (TAK 165)] | -0.08 °C |
| N[C@@H]1CCCN(c2c(/C=C3\SC(=O)NC3=O)cccc2-c2ccccc2)C1 | 0 °C |
| O=C(Nc1cccc(Nc2ncc(Br)c(NCCc3cnc[nH]3)n2)c1)N1CCCC1 | 1.21 °C |

## Input Field: thermal shift delta Tm (LOC_OS01G51400-cb002). Entry: CC(C)(O)CNc1ncc(-c2ccnc(Nc3ccnc(Cl)c3)n2)c(CC2CC2)n1
## Output 0.19 °C

## Input Then this compound: Cc1cc(CN2CCN(c3c(Br)cnc4nc(-c5ccc(N6CCN(C)CC6)cc5)[nH]c34)CC2)no1
## Output 0.84 °C

## Input Also, Cc1ccc(NC(=O)c2ccc(CN3CCN(C)CC3)cc2)cc1Nc1nc(-c2cccnc2)cs1 [Masitinib (AB1010)] please.
## Output -0.06 °C

## Input Subsequent entry: O=c1[nH]nc(Sc2ncc([N+](=O)[O-])s2)n1-c1ccc2c(c1)OCCO2
## Output -0.65 °C

## Input Now consider CC(C)(C#N)c1ccc(N2C(=O)OCc3cnc4ccc(-c5cnc6ccccc6c5)cc4c32)cc1 and answer again.
## Output 0.65 °C

## Input Also, O=c1cc(N2CCOCC2)oc2c(-c3cccc4c3sc3ccccc34)cccc12 please.
## Output -1.28 °C

## Input # iterate: Cc1cc(Nc2nc(N[C@@H](C)c3ccc(F)cc3)c(C#N)cc2F)n[nH]1
## Output 0.07 °C

## Input Lookup O=C(Nc1nccs1)C(c1cc(F)ccc1O)N1Cc2ccccc2C1=O (stereo not given)
## Output -0.02 °C

## Input Then what about the compound Cn1cc(C2=C(c3ccc(Cl)cc3Cl)C(=O)NC2=O)c2ccccc21 ?
## Output 13.9 °C

## Input Then Cc1[nH]c(/C=C2\C(=O)Nc3ccccc32)c(C)c1CCC(=O)O [Orantinib (TSU-68, SU6668)] ?
## Output 0.2 °C

## Input Also CC(C)N(CCC(=O)c1ccc2ccccc2c1)Cc1ccccc1 , if possible.
## Output -0.18 °C
